- Tested on: HCT-116 colon
- assay-method-text: NCI tumour cell line growth inhibition, 48 h
quantity-kind: GI50

These recorded examples may help you get a feel for the data.
Cc1cccc(N2CCN(C(=S)c3ccc4c(c3)OCO4)CC2)c1	0.513 µM
COC1=CC(=O)c2nc(-c3cccc(C)n3)[nH]c2C1=O	18 µM
COc1ccc(-c2n[nH]nc2-c2cc(OC)c(OC)c(OC)c2)cc1	< 0.01 µM
Cc1cc(C(=O)Nc2ncc(Cc3cccc(C(F)(F)F)c3)s2)c2ccccc2n1	1.29 µM
CC(=O)[O-].CCN(CC)c1ccc(C=NCCN=Cc2ccc(N(CC)CC)cc2[O-])c([O-])c1.[Mn+3]	18.5 µM

For each listed entry, give its GI50.
1. CCC[CH2][Sn]1([CH2]CCC)[O]CC(CN2CCCC2)[O]1 (configuration not stated)
2. CCCCCCCC/C=C/CCCCCCCC(=O)OC[C@H]1O[C@@H](n2ccc(N)nc2=O)C(F)(F)[C@@H]1O

1. 16.9 µM
2. < 0.018 µM

----------
- Test system: MDA-MB-435
- assay-method-text: NCI tumour cell line growth inhibition, 48 h
quantity-kind: TGI (µM)
Numbers only, in µM.

Cc1c(S(=O)(=O)/N=C(\NO)Nc2ccc(Cl)c(Cl)c2)sc2ccc(Cl)cc12	37.3

For each listed entry, give its TGI.
1. Clc1nc(Cl)c(Cl)c(-c2ccccc2)n1
2. CCN(CC)C(=S)N/N=C(/C)c1cccc(/C(C)=N\NC(=S)N(CC)CC)n1

28.7
14.9

Suppose we examine the compound Oc1ccc(-c2nc(-c3cccnc3)c(-c3ccc(Cl)cc3)[nH]2)cc1 ; what TGI value has been reported?
25.5

----------
- Test system: SF-295 CNS
- assay-method-text: NCI tumour cell line growth inhibition, 48 h; in the data active means GI50 below about 0.43 µM; inactive means the rest
Bench note: report the call from active, inactive

Solved cases (5 shown):
COc1cc2c(c(OC)c1OC)-c1ccc(OC)c(=O)cc1[C@@H](NC(=O)c1ccccc1)CC2	active
CCOC(=O)[C@@H](N)CCC(=O)N[C@@H](CSCc1ccccc1)C(=O)N[C@@H](C(=O)OCC)c1ccccc1	inactive
COC1=CC(=O)c2nc(-c3cccc(C)n3)[nH]c2C1=O	inactive
CCCCCCCC/C=C/CCCCCCCC(=O)OC[C@H]1O[C@@H](n2ccc(N)nc2=O)C(F)(F)[C@@H]1O	active
COc1ccc(Cn2cc3c(c2-c2ccccc2)CC(C)(C)c2cnoc2-3)cc1	inactive

Call for entry COc1cc2ncnc(Nc3ccc(C)c(O)c3)c2cc1OC :
inactive

Call for entry C=C1C(=O)O[C@H]2[C@H]1CC/C(COC(=O)C(=O)c1cn(Cc3ccccc3)c3ccccc13)=C\CC[C@@]1(C)O[C@@H]21 :
inactive

Call for entry COc1cc2c3c(n(CCCNC(=O)OCC4c5ccccc5-c5ccccc54)c(=O)c2cc1OC)-c1cc2c(cc1/C3=C\CCNC(=O)OCC1c3ccccc3-c3ccccc31)OCO2 :
inactive

----------
- System: ACHN renal
- assay-method-text: NCI tumour cell line growth inhibition, 48 h
Would you mind telling me the reported TGI of each entry?

These recorded examples may help you get a feel for the data.
COc1cc(CNCc2cc(OC)c(OC)c(OC)c2)cc(OC)c1OC	> 10 µM
C=C1C(=O)O[C@@H]2/C=C(\C)CC/C=C(/COC(C)=O)C[C@@H](OC(C)=O)[C@@H]12	17 µM
COc1ccccc1CCc1cc(OC)c(OC)c(OC)c1	> 100 µM
Cc1cccc(N=NC(=O)NNc2cccc(C)c2C)c1C	95.7 µM
CCOC(=O)CC1(C(=O)OCC)c2[nH]c3ccccc3c2CCN1Cc1ccccc1 (configuration not stated)	50.9 µM
N#CC(NC12CC3CC(CC(C3)C1)C2)c1ccccc1C(F)(F)F (configuration not stated)	> 100 µM
CCOC(=O)c1nc2ccc(C(F)(F)F)cc2nc1NCc1cc(OC)c(OC)c(OC)c1	> 100 µM
COC(=O)[C@@H](C)CNS(=O)(=O)N(c1cc(C(F)(F)F)cc(C(F)(F)F)c1)C1CCN(Cc2ccc(F)cc2)CC1	30 µM
COc1cc(-c2ccc3c(c2)NC(=O)/C3=C\c2ccc[nH]2)ccc1O	> 50 µM
Cc1cccc(NC(=O)/C(=N\NC(C)(C)C)C2NC(=S)NC2=O)c1C (configuration not stated)	> 100 µM

For each listed entry, give its TGI.
1. C(=Nc1ccc(-c2nc3ccccc3[nH]2)cc1)c1cccs1
2. CC(=O)[O-].CCN(CC)c1ccc(C=NCCN=Cc2ccc(N(CC)CC)cc2[O-])c([O-])c1.[Mn+3]
3. NCC1Nc2ccccc2[C@@H](O)C1O (some centres not stated)
4. Cc1ccc(SCC(CF)OC(C)n2cnc3c(=O)[nH]c(N)nc32)cc1 (configuration not stated)
5. COc1ccc(Nc2c3ccccc3nc3occc23)cc1
6. Cc1cc(S(=O)(=O)Nc2nnc(-c3ccccc3)c(-c3ccccc3)n2)c(SCC(N)=O)cc1Cl

["> 100 µM", "> 100 µM", "> 100 µM", "> 100 µM", "> 80.6 µM", "> 100 µM"]

For each listed entry, give its TGI.
1. CC(C)(C)c1ccc2c(c1)S(=O)(=O)Nc1ccccc1NS(=O)(=O)c1cc(C(C)(C)C)ccc1OCCOCCOCCO2
2. CCCCCCCC/C=C/CCCCCCCC(=O)OC[C@H]1O[C@@H](n2ccc(N)nc2=O)C(F)(F)[C@@H]1O
3. Cc1ccc(-c2c(C#N)c(-c3ccc(Cl)cc3)c(C#N)c(=O)n2NS(=O)(=O)c2ccc(C)cc2)cc1
4. COC(=O)C1=CNC=C(C(=O)OC)C1C1=CC(=O)C(C)=CC1=O

> 100 µM
6.07 µM
> 100 µM
8.18 µM

For each listed entry, give its TGI.
1. COc1ccccc1CNCCCN1C(=O)c2ccc3c4c(ccc(c24)C1=O)C(=O)N(CCCOCCCCOCCCN)C3=O
2. Cc1ccc(C(=O)CN(/C=C/C(=O)C(F)(F)F)c2ccc(S(N)(=O)=O)cc2)cc1
3. CCOC(=O)C(=Cc1[nH]c2ccccc2c1-c1c[nH]c2ccccc12)C(=O)OCC
4. CCOP(C)(=O)C(N)Cc1ccc(OC)c(OC)c1 (configuration not stated)
5. Cc1ccc(/C=C2\CCCc3ccccc3C2=O)cc1
6. NCCCCN(CCCN)/[N+]([O-])=N\O
7. N=C1C(c2nc3ccccc3s2)=C(O)CN1c1cc(C(F)(F)F)ccc1Cl
8. CCCN1CCC(=O)N(CCC(F)(F)C(F)(F)C(F)(F)C(F)(F)C(F)(F)C(F)(F)F)C1=S

1. 2.57 µM
2. > 100 µM
3. 24.5 µM
4. > 100 µM
5. > 100 µM
6. > 100 µM
7. > 100 µM
8. > 100 µM
